Structures can show the parent of a compound that is named as a salt.
Kindly supply the reported melting point values for the records listed here.

Can you look up the measured melting point of Clc1ccnc2[nH]c(C3CCCNC3)cc12 (stereo not drawn) (as salt: HCl) for me?
> 250 °C (dec.)

Given c1cnc2[nH]c(C3CCCNC3)cc2c1 (stereo not drawn) , state its recorded melting point.
144 to 145 °C

What does the record list as melting point for "CN1CCC[C@H]1Cc1cc2cccnc2[nH]1" ?
130 to 131 °C

What does the data say about its melting point? Entry: c1cnc2[nH]cc(C3CN4CCC3CC4)c2c1 (stereo not drawn)
185 °C

So what does the record say about melting point for c1cnc2[nH]c(C3CN4CCC3CC4)cc2c1 (stereo not drawn) ?
190 °C

Look up melting point: C1=C(c2cc3cccnc3[nH]2)CNCC1 (as salt: HCl)
> 275 °C (dec.)

----------
molecular target: [^3H]-dopamine uptake in rat striatal synaptosomes (Rattus norvegicus, UniProt P23977); construct: a crude synaptosomal fraction (P2) was prepared by homogenization and centrifugation; from tissue; host or cells: rat striatum, crude synaptosomal fraction (P2); assay: In vitro [3H]-dopamine uptake in rat striatal synaptosomes; assay type: biochemical
Sequence (P23977 whole entry): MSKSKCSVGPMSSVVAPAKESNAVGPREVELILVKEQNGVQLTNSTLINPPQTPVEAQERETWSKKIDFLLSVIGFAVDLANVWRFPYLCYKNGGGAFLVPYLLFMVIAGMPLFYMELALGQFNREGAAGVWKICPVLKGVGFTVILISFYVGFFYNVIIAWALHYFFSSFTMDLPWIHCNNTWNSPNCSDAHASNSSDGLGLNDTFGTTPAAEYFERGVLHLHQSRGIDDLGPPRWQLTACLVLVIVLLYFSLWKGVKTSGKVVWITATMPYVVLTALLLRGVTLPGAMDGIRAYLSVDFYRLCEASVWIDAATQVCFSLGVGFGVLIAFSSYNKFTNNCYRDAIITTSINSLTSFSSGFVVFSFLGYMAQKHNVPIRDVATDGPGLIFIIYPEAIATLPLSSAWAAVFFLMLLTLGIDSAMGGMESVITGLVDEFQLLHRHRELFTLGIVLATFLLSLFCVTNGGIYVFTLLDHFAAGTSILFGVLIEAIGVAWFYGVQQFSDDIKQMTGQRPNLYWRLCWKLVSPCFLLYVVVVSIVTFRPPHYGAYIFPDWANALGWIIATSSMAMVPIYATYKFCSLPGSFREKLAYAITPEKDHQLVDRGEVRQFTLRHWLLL
PARAMETER: IC50

I am curious: what IC50 value has been reported for CN1CCC[C@H]1Cc1c[nH]c2ncccc12 (stereo in doubt) [Compound 99] ?
> 10 µM

FYI, the data here is from patent US8252930B2.
